Provide the recorded Kd for the entries that follow.
Biological target: T1, NativeRPtag(large)_with_Tags_and_Cys (Thermoanaerobacter tengcongensis)
T1 construct: Unlabeled in anisotropy assays; coupled through the engineered N-terminal Cys to SulfoLink agarose or maleimide plates in column, pull-down and ELISA assays
T1 chain: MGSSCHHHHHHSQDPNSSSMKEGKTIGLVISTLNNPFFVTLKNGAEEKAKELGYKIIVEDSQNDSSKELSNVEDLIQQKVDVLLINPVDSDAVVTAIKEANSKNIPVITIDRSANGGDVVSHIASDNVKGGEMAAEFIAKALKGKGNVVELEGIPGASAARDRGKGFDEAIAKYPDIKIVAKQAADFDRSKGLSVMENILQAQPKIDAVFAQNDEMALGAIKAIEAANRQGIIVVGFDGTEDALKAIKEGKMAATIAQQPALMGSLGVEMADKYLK
Experiment: fluorescence anisotropy; glycerol (20%)
No end group written: not given here. *: point of attachment. RhodamineB = CCN(CC)c1ccc2c(-c3ccccc3C(=O)*)c3ccc(=[N+](CC)CC)cc-3oc2c1

binder | reported metric | measurement
RhodamineB-KIANFIPAELKLITKANVQ (also: also used unlabeled as competitor, Rhodamine labeled in the Kd assays; also called RPtag(small) (tight)) [RPtag(small) Nd2, p5a, e18a] | Kd | < 1 pM

Please give the measured Kd for this binder: RhodamineB-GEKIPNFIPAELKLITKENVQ (Synthetic peptide) [native RPtag(small)]
34 pM

Values from patent US20200102347A1
